# testedSystem: T1, human MSLN-FL-his protein (human, UniProt Q13421 296-580)
# T1 construct: Made in HEK293E cells, purified on nickel column; it is put last here; also called human MSLN full-length protein; hMSLN-FL-his; not shown: His tag
# T1 sequence (Q13421 other isoform, or with tags, fused parts or gaps): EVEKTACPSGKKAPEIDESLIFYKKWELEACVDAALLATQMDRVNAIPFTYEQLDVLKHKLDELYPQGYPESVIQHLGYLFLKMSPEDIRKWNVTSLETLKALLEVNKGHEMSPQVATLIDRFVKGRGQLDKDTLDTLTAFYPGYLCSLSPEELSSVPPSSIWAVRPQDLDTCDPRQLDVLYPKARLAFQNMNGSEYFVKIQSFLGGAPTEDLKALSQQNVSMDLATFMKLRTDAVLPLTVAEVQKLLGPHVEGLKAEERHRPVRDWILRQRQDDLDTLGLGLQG
# testDescription: ELISA on coated antigen, no antibody (blank, column 'none')
assayEndpoint: OD450 (OD)
Just the number please, in OD, no unit attached.

Which OD450 is listed for S009-F8-24.14 (antibody, human IgG1, kappa, V domains shown, Human-murine chimeric antibody, human IgG1 heavy and kappa light constant regions) VH: EFQLQQSGPELVKPGASVKISCKASGYSFTDYNMNWVKLSNGKSLEWIGVIIPNYGTSSYNQKFKGKATLTVDQSSSTAYMQLNSLTSEDSAVYYCARWDNYYGSSLDYWGQGTTLTVSS VL: DIVMTQSQKFMSTTVGDRVSITCKASQNVGTAVAWYQQKPGQSPKLLIYSASNRYTGVPDRFTGSGSGTDFILTISNMQSEDLADYFCQQYSSYPLTFGAGTKLELKR ?
0.06

Also check S009-F8-33.12 (antibody, human IgG1, kappa, V domains shown, Human-murine chimeric antibody, human IgG1 heavy and kappa light constant regions) VH: EVQLQQSGAELVKPGASVKLSCTASAFNIKDYYMHWVKQRTEQGLEWIGRIDPEDGETKYAPKFQGKATITADTSSNTAYLQLSSLTSEDTAVYYCASGSGTGAMDYWGQGTSVTVSS VL: DIVMTQSQKFMSTSVGDRVSITCKASQNVRTAVGWYQQKPGQSPKALIYLASNRHTGVPDRFTGSGSGTDFTLTISNVQSEDLADYFCLQHWNSPYTFGGGTKLVIKR
0.06

Similarly, S009-F8-5.15 (antibody, human IgG1, kappa, V domains shown, Human-murine chimeric antibody, human IgG1 heavy and kappa light constant regions) VH: QVQLQQPGTELVKPGASVKLSCKASGYTFTSYWMHWVKQRPGQGLEWIGHSNPSNGGTNYNEKFKSKATLTVDKSSSTAYMQLSSLTSEDSAVYYCARWVRGSNYEYFDVWGTGTTVTVSS VL: DIVMTQSQKFMSTTVGDRVSIICKASQNVGSAVAWCQQKPGQSPKLLIYSASNRYTGVPDRFTGSGSGTDFTLTISNMQSEDLADYFCQQYSSYPLTFAGGTKLEIKR ?
0.05

What would you report for S009-F8-29.1 (antibody, human IgG1, kappa, V domains shown, Human-murine chimeric antibody, human IgG1 heavy and kappa light constant regions) VH: QVQLQQSGAELARPGASVKMSCKASGYTFISYTMHWVKQRPGQGLEWIGYINPSSGYTKYNQKFKDKATLTADKSSSTAYMQLNSLTSEDSAVYYCARYYSNPDYYAMDYWGQGTSVTVSS VL: QIVLTQSPAIMSASPGEKVTITCSASSSVSYMHWFQQKPGTSPKLWIYSTSNLASGVPARFSGSGSGTSYSLTISRMEAEDAATYYCQQRSSYPLTFGGGTKLELKR ?
0.18

Also, S009-F8-19.21 (antibody, human IgG1, kappa, V domains shown, Human-murine chimeric antibody, human IgG1 heavy and kappa light constant regions) VH: EFQLQQSGPELVKPGASVKISCKTSGYSFTDYNMNWVKQSNGKSLEWIGVINPNYGTTGYNQKFKGKATLTVDQSSSTAYMQLNSLTSEDSAVYYCARGGYDGEAMDYWGHGTSVTVSS VL: QIVLTQSPAIMSASPGEKVTMTCSASSSVNYMHWYQQKSGTSPKRWIYDTSKLASGVPARFSGSGSGTSYSLTISSMEAEDAATYYCQQWSSYPPTFGGGTKLEIKR please.
0.06

Quick one: S009-F8-4.5 (antibody, human IgG1, kappa, V domains shown, Human-murine chimeric antibody, human IgG1 heavy and kappa light constant regions) VH: QVQLQQPGAELVKPGASVKLSCKASGYTFTIYWMHWVKQRPGQGLEWIGMIHPNSGNTNYNEKFKSKATLTVDKSSSTAYMQLSSLTSEDSAVYYCSLIHWYFDVWGTGTTVTVSS VL: QIVLTQSPAIMSASPGEKVTMTCSASSSVSYMYWYQQKPGSSPRLLIYDTSNLASGVPVRFSGSGSGTSYSLTISRMEAEDAATYYCQQWSSYPLTFGAGTKLELKR
0.06

Cool, now S009-F8-22.23 (antibody, human IgG1, kappa, V domains shown, Human-murine chimeric antibody, human IgG1 heavy and kappa light constant regions) VH: QVQLKQSGPGLVQPSQSLSITCTVSGFSLFSYGVHWVRQSPGKGLEWLGVIWSGGSTDYNAAFISRLSISKDNSKSQVFFKMNSLQADDTAMYYCARNGGSMITTLYYAMDYWGQGTSVTVSS VL: DVVMTQTPLSLPVSLGDQASISCRSSQSLVHSYGNTYLHWYLQKPGQSPKLLIYKVSNRFSGVPDRFSGSGSGTDFTLKISRVEAEDLGVYFCSQSTHIPFTFGGGTKLEIKR
0.04

// repeat for S009-F8-31.22 (antibody, human IgG1, kappa, V domains shown, Human-murine chimeric antibody, human IgG1 heavy and kappa light constant regions) VH: EVQLVESGGDLVKPGGSLKLSCAASGFTFSTYGMSWVRQTPDKRLEWVATISSGGSYTYYPDSLKGRFTISRDNAKNTLYLQMSSLKSEDTAMYYCARHEGYYYGKDYWGQGTTLTVSS VL: DIVLTQSPATLSVTPGDSVSLSCRASHSISNNLHWYQQKSHESPRLLIKYASQSISGIPSKFSGSGSGTDFTLSINSVETEDFGMYFCQQTNSWPLTFGAGTKLELKR and report
0.08

Another binder: S009-F8-36.12 (antibody, human IgG1, kappa, V domains shown, Human-murine chimeric antibody, human IgG1 heavy and kappa light constant regions) VH: EVQLQQSGPELVKPGASVKISCKASGYTFTDYYMNWVKQSHGKSLEWIGDINPNNGGTSYNQKFKGKATLTVDKSSSTAYMELRSLTSEDSAVYYCASWGYGSSSRGYFDYWGQGTTLTVSS VL: QIVLSQSPAILSASPGEKVTMTCRASSSVSYMHWYQQKPGSSPKPWIYATSNLASGVPARFSGSGSGTSYSLTISRVEAEDAATYYCQQWSSNPWTFGGGTKLEIKR
0.04

How about S009-F8-7.5 (antibody, human IgG1, kappa, V domains shown, Human-murine chimeric antibody, human IgG1 heavy and kappa light constant regions) VH: DVQLQESGPGLVKPSQSLSLTCSVTGYSITSGYYWNWIRQFPGNKLEWMAYIRYDGSNNYNPSLKNRISIIRDTSKNQFFLRLNSVTTEDTATYYCAKSYYGMDDWGQGISVTVSS VL: DIQMTQSPASLSASVGETVTITCRTSGDIHNYLAWYQQKQGKSPQLLVYKAKTLENGVPSRFTGSGSGTQFSLKIDSLQPEDFGTYYCQHFWTTPYTFGGGTKLEIKR ?
0.05
